systemTested: Metabotropic glutamate receptor 5 (Rattus norvegicus)
assayName: Negative allosteric modulation of rat mGlu5 receptor assessed as calcium mobilization by cell based fluorescence assay
Format: functional
Calls of active or inactive are those of the source. The rule behind the calls is not given here.
readoutLabel: Activity

[[record]]
compoundstring = "C[C@@H]1CN(c2cccc(F)c2F)C(=O)c2cc(COc3ccc(F)cn3)nn21"
result = "Active"

[[record]]
compoundstring = "C[C@@H]1CN(c2ccc(F)cc2)C(=O)c2cc(COc3cccc(Cl)c3)nn21"
result = "Active"

[[record]]
compoundstring = "C[C@@H]1CN(c2cccnc2)C(=O)c2cc(COc3ccc(F)cn3)nn21"
result = "Active"

[[record]]
compoundstring = "Cc1ccccc1N1C[C@@H](C)n2nc(COc3ccc(F)cn3)cc2C1=O"
result = "Active"


Sample "C[C@@H]1CN(c2c(F)cccc2F)C(=O)c2cc(COc3ccc(F)cn3)nn21" — what was its Activity?
Active

Now consider "COc1cccc(N2C[C@@H](C)n3nc(COc4ccc(F)cn4)cc3C2=O)c1" .
Active

Now consider "Cc1cccc(OCc2cc3n(n2)[C@H](C)CN(c2ccc(F)cc2)C3=O)c1" .
Active

Now consider "C[C@@H]1CN(c2ccccc2Cl)C(=O)c2cc(COc3ccc(F)cn3)nn21" .
Active

Now consider "Cc1ccnc(OCc2cc3n(n2)[C@H](C)CN(c2ccc(F)cc2)C3=O)c1" .
Active

Now consider "C[C@@H]1CN(c2ccccc2F)C(=O)c2cc(COc3ccc(F)cn3)nn21" .
Active

Now consider "C[C@@H]1CN(c2cccc(Cl)c2)C(=O)c2cc(COc3ccc(F)cn3)nn21" .
Active

Now consider "COc1ccccc1N1C[C@@H](C)n2nc(COc3ccc(Cl)cn3)cc2C1=O" .
Active

Now consider "C[C@@H]1CN(c2cc(F)ccc2F)C(=O)c2cc(COc3ccc(F)cn3)nn21" .
Active

Now consider "Cc1ccc(N2C[C@@H](C)n3nc(COc4ccc(F)cn4)cc3C2=O)cc1" .
Active

###

systemTested: Metabotropic glutamate receptor 3 (Rattus norvegicus, UniProt P31422)
Sequence (P31422 whole entry): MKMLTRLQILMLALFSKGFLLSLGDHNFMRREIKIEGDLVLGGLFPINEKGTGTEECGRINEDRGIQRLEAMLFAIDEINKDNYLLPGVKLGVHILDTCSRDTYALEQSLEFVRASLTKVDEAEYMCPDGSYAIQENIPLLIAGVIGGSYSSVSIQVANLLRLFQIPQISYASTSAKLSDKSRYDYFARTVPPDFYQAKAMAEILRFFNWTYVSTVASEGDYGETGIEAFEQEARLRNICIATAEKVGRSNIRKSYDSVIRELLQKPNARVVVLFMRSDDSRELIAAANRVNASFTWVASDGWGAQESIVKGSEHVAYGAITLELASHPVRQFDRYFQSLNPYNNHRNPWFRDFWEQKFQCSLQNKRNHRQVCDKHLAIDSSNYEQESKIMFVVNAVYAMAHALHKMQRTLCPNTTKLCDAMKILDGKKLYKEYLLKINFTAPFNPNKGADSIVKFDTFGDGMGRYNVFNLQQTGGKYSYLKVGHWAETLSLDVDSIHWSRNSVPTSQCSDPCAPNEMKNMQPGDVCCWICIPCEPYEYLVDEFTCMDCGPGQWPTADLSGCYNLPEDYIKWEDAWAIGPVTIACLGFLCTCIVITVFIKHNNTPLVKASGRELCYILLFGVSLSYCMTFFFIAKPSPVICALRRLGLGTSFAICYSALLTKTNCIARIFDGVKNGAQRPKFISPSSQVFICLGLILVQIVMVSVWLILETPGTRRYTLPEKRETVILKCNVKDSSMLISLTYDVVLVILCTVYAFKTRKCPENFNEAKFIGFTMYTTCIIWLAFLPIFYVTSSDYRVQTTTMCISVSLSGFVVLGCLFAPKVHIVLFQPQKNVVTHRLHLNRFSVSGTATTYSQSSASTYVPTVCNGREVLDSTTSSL
assayName: Negative allosteric modulation of rat mGlu3 receptor assessed as calcium mobilization by cell based fluorescence assay
Consider the cut-off 300 nM. If the recorded IC50 is strictly smaller, the label is Y; if not, the label is N.

Solved entries (count: 5):
[[record]]
compoundstring = "C[C@@H]1CN(c2cccc(F)c2F)C(=O)c2cc(COc3ccc(Cl)cn3)nn21"
cat = "N"

[[record]]
compoundstring = "C[C@@H]1CN(c2ccc(Cl)cc2)C(=O)c2cc(COc3ccc(Cl)cn3)nn21"
cat = "N"

[[record]]
compoundstring = "C[C@@H]1CN(c2ccc(F)cc2)C(=O)c2cc(COc3ncccc3C(F)(F)F)nn21"
cat = "N"

[[record]]
compoundstring = "C[C@@H]1CN(c2c(F)cccc2F)C(=O)c2cc(COc3ccc(Cl)cn3)nn21"
cat = "Y"

[[record]]
compoundstring = "Cc1cccc(N2C[C@@H](C)n3nc(COc4ccc(F)cn4)cc3C2=O)c1"
cat = "Y"


Does the reported IC50 of the following molecule sit strictly below 300 nM? "CCOc1ccc(OCc2cc3n(n2)[C@H](C)CN(c2ccc(F)cc2)C3=O)cc1"
N

Now consider "COc1ccnc(OCc2cc3n(n2)[C@H](C)CN(c2ccc(F)cc2)C3=O)c1" .
N

Now consider "C[C@@H]1CN(c2ncccc2F)C(=O)c2cc(COc3ccc(Cl)cn3)nn21" .
N

Now consider "Cc1ccccc1N1C[C@@H](C)n2nc(COc3ccc(F)cn3)cc2C1=O" .
N

Now consider "C[C@@H]1CN(c2ccccc2Cl)C(=O)c2cc(COc3ccc(Cl)cn3)nn21" .
N

src = ChEMBL document CHEMBL3616441
